Can you tell me Population Healthy Nuclei (%) for the items I'm about to list?
System: HEK-293T
experimental-protocol: Multiplex assay against HEK293T
Type: toxicity, cell-based
condition-notes: human, 48 h, 10 µM, compound concentration 10 uM, replicate 2
The answer is to be given in %; state only the numeric part.

Inquiry: Give its Population Healthy Nuclei (%) value. Item: COCC(=O)NC/C=C/c1ccc2ncnc(Nc3ccc(Oc4ccc(C)nc4)c(C)c3)c2c1
Reply text: 51

Inquiry: Then this compound: Cc1ccc(C(=O)Nc2cccc(C(F)(F)F)c2)cc1Nc1nc(-c2cccnc2)nc2c1cnn2C
Reply text: 29

Inquiry: Then this compound: Cc1cn(-c2cc(NC(=O)c3ccc(C)c(Nc4nccc(-c5cccnc5)n4)c3)cc(C(F)(F)F)c2)cn1
Reply text: 69

Inquiry: Then this compound: O=C(Nc1ccc(-n2nc(-c3cccnc3)cc2C(F)(F)F)cn1)c1ccc(-c2ccccc2)c(F)c1
Reply text: 82

Inquiry: Then this compound: CCc1cccc(CC)c1NC(=O)c1nn(C)c2c1CCc1cnc(Nc3ccc(C(=O)NC4CCN(C)CC4)cc3OC(F)(F)F)nc1-2
Reply text: 38

Inquiry: Then this compound: CN1CCC(=C2c3ccccc3CC(=O)c3sccc32)CC1.O=C(O)/C=C/C(=O)O [KETOTIFEN FUMARATE]
Reply text: 70

Inquiry: Then this compound: CCCS(=O)(=O)c1nc(NC2CC2)cc(-c2ccc3c(ccn3C3CC(C)(C)NC(C)(C)C3)c2)n1
Reply text: 19

Inquiry: Then this compound: CNc1cc(Oc2cc(C(=O)Nc3cc(N4CCN(C)CC4)cc(C(F)(F)F)c3)ccc2C)ncn1
Reply text: 5
